Give phosphorylation enrichment for every item shown.
system: AncSZ; assay: phosphorylation enrichment, bacterial display (enrichment ratio); higher = better substrate or ligand; peptides without Tyr show the background
One number for each entry.

Sample records with phosphorylation enrichment:
ESDFPYSSSFE [SRPK2_Y427_T426P_YF]: 1.1
AVPSLYASGRT [ACTA1_Y145_L142P]: 0.65
NGSFRYVIISQ [LRP1B_Y1988]: 1.12
RRFLFYFSFLL [PTEN_Y177_V175L_YF]: 0.691
KNKNRCKNILP [PTPN11_Y279_Y279C]: 0.765

List reported phosphorylation enrichment for each of these sequences:
1. EFISENCGEII [EZH2_Y641_Y641N]
2. TVFENYVADIE [RHOA_Y42]
3. RARIRYAQEHD [NSD1_Y1987]
4. ANVIRYFPTQA [SLC25A4_Y81]
5. RDSQLYAVDYE [MRPS34_Y34]

[1.31, 1.42, 1.12, 0.78, 2.1]

* * *

molecular target: Jak2 (UniProt O60674); assay: phosphorylation enrichment, bacterial display (enrichment ratio); higher = better substrate or ligand; peptides without Tyr show the background
Sequence (O60674 whole entry, looked up): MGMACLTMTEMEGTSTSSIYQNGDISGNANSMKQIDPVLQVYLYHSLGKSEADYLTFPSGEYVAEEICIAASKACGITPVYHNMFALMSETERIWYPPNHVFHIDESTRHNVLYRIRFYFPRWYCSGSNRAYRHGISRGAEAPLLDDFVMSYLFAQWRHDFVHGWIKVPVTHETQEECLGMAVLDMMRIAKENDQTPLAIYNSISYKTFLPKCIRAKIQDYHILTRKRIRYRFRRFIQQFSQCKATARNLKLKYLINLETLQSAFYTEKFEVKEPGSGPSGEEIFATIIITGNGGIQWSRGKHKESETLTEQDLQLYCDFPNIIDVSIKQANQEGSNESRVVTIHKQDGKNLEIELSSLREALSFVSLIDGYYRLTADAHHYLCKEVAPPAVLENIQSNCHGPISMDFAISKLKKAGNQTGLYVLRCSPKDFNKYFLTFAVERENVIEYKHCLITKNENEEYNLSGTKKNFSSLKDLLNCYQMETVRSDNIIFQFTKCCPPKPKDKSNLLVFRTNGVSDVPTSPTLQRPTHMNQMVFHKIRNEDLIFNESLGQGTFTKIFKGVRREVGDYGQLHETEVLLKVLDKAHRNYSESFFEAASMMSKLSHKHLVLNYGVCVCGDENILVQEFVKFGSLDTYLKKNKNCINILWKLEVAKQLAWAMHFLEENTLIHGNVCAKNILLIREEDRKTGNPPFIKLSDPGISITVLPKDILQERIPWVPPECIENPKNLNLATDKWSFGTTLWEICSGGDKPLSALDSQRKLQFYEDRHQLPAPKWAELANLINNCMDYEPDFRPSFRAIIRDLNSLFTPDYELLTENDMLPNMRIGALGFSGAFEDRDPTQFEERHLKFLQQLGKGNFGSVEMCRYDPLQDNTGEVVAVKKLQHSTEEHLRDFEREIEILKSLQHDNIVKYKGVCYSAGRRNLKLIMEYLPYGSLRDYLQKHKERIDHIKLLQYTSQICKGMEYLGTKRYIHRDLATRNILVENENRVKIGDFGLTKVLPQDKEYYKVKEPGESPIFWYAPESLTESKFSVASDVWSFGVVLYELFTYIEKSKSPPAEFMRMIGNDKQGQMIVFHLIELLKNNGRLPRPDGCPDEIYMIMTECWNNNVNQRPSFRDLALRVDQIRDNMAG
Endpoint: phosphorylation enrichment
One number for each entry.

CSHMFYGKQCC [ADAMTS16_Y1211_K1209M]: 0.852
RRNEIYEIKVD [LGR5_Y387_H383R]: 0.669
ILTLKYPIKHG [ACTA1_Y71_E74K]: 0.558
DHAGMYGLGDR [MAPT_Y18_T17M]: 0.45
RFLERDIFNRE [HLA-DPB1_Y57_Y57D_YF]: 1.69

Each of the following entries comes with a recorded value; kindly state phosphorylation enrichment for each.
1. DCVRMYELVHR [GLE1_Y135_G130D]
2. RDSQIYAVDFE [MRPS34_Y34_L33I_YF]
3. IFLADCRIMEG [ALOX12B_Y318_Y318C_YF]
4. ILGTYYETGSI [PAX2_Y73_R71T]
5. VKMLLYTEVTR [GDI1_Y93]
6. GRVLGYGTFGK [FLT4_Y853_A855T]
7. DVSVVCSEVKT [FCRL4_Y493_Y493C]
8. GMKIVYVFVKK [DNAI2_Y5_E2K_YF]

1: 1.09; 2: 1.15; 3: 1.2; 4: 1.28; 5: 1.23; 6: 0.617; 7: 0.995; 8: 1

* * *

target: c-Src SH2; test: SH2 binding enrichment of the phosphorylated peptide, bacterial display (enrichment ratio); higher = better substrate or ligand; peptides without Tyr show the background;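 note: peptide library displayed on the E. coli surface as eCPX fusions, selected cells deep-sequenced, score is each peptide's frequency after selection divided by its frequency in the input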
Endpoint: SH2 binding enrichment
One number for each entry.

// below: answered sequences
LEDDMYRKTCT [XPA_Y257]: 0.524
QGLRLYRPHLP [BTK_Y617_A622P]: 0.781
ETMNKYDLSGR [MYEF2_Y164]: 0.44
WQLEIYRASRP [ERCC4_Y594_R589W]: 0.599
PFRSIYFSSPK [MPG_Y75_YF]: 0.447
RRNEIYEIKVD [LGR5_Y387_H383R]: 0.426
QGLRLYRTHLA [BTK_Y617_P619T]: 1.08
YLEKYYKFGCR [NNMT_Y25_S29C]: 0.681
KGPNVYKKTVN [REV3L_Y1156]: 0.529
ALAHKYQGGGG [HBB_Y146_H147Q]: 0.415

For each listed entry, give its SH2 binding enrichment.
1. LMQAEYWHDPI [PPT1_Y185_V181M]
2. KNNSIYVLANI [VNN1_Y134_V136L]
3. MDQAEYQAKIQ [DHX58_Y518_R523Q]
4. HNVAIYEGFAL [ACTC1_Y168_P166A_YF]
5. PLGKDYRKAEG [MAP1A_Y1909]
6. RGLQVYHKRNA [LRP2_Y2010_R2012K]
7. AVSHRYDLGGL [QPRT_Y162_A158V]

1: 0.983; 2: 0.796; 3: 0.412; 4: 0.509; 5: 0.408; 6: 0.567; 7: 0.6

Please state, for each entry, its recorded SH2 binding enrichment.
1. RVGNMYVRGLS [ABCG8_Y209]
2. EKMWSYTKSAE [GRIA3_Y705_M706T]
3. LPPGEYVVVPS [CAPN1_Y494]
4. EIRTQDEAMAS [GFAP_Y242_Y242D]
5. KIVATYRLCSE [DNAH3_Y1586]
6. PNKAVYTKMMT [G6PD_Y401_E398K]

1. 0.564
2. 0.473
3. 0.789
4. 0.575
5. 0.512
6. 3.63

Provide each entry's SH2 binding enrichment from the list below.
1. AFLGEYIPTVF [RAC2_Y32_P29L]
2. GLAELYEYQKK [CKAP5_Y1854_K1857Q]
3. RNAAEYLLSSG [ABL1_Y139]

1. 0.658
2. 0.509
3. 0.566

Take each entry in turn and give its SH2 binding enrichment.
1. YKPGFYNLKEK [LAMA1_Y490_C485Y]
2. MEIHAYLKLLE [LMNA_Y376_R377L]
3. VRQQDYKKVEE [HADHA_Y283_V282D]

[0.814, 0.732, 0.414]

Below are 7 sequences. Give each one its SH2 binding enrichment.
1. NKEAIYSGYIR [SMCHD1_Y283]
2. TLAHKYHGGGG [HBB_Y146_A141T]
3. LKLIQYHLIQQ [AKAP4_Y554_T557I]
4. GIVEEYQLPYY [BMPR1A_Y453]
5. HFPFQCHRQLF [F12_Y53_Y53C_YF]
6. SLQAHYDTPRS [DOK7_Y405_R402Q]
7. DFAIVYGTIIL [GPR179_Y460_G455D]

1. 0.567
2. 0.558
3. 2.22
4. 4.36
5. 0.951
6. 5.05
7. 0.343

Please report SH2 binding enrichment for every entry that follows.
1. DRIVNYSRASI [ATP7A_Y1459]
2. QRAADYYSQQM [GBP6_Y333]
3. PVQAAYQKVEA [HBB_Y131_V135E]
4. QSSALYEDHYL [ASS1_Y83_R86H]
5. ENGPYYASYPP [GDAP2_Y488_T489A]
6. CNNFICGGCRG [SPINT2_Y163_Y163C]

1. 0.498
2. 0.56
3. 1.05
4. 0.524
5. 0.632
6. 0.6

// input: 3 sequences below; output: SH2 binding enrichment for each
1. DVSVVCSEVKT [FCRL4_Y493_Y493C]
2. GNHVSYYQSDG [CACNA1C_Y1757]
3. VECRVYAEDPF [PCCA_Y401_YF]

1. 0.594
2. 0.902
3. 0.54

Report SH2 binding enrichment for each item below.
1. IFLADYRIMEG [ALOX12B_Y318_YF]
2. SVFNNYIQTLG [CTNND1_Y174_S171F]

1. 0.987
2. 0.739
